- assay.system: 5α-reductase (Homo sapiens, UniProt P31213)
- Construct: Frozen human prostates were thawed on ice and minced with scissors into small pieces; from tissue; host or cells: human prostate (frozen), washed 140,000×g membrane pellet
- Sequence (P31213 whole entry): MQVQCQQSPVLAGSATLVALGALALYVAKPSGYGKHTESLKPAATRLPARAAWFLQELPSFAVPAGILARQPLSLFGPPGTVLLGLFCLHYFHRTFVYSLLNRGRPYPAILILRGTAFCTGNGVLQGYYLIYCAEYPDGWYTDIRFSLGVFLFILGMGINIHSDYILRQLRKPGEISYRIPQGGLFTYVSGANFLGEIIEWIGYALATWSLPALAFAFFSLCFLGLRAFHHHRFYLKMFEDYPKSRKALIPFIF
- protocol.text: inhibitory activity on 5α-reductase from human prostates (conversion of 14C-testosterone to DHT)
- Type: biochemical
- conditions: human prostatic 5α-reductase, pH 5.0, 1 μM 14C-testosterone, 1 mM NADPH, 30 min at 37° C.; Table 2
metric: pIC50
pIC50 is defined as minus the log10 of a concentration measured in mol/L.

molecule="Cc1ccc(C(=O)c2ccc(CC(=O)O)n2C)cc1 [methyl]" reported_value=5.10

Ask: Query: pIC50; subject: Cn1c(CC(=O)O)ccc1C(=O)c1ccc(I)cc1 [iodo]
Result: 6.36

Ask: Entry under review: CCCCCCOc1ccc(C(=O)c2ccc(CC(=O)O)n2C)cc1 [hexyloxy] . Reported pIC50?
Result: 6.77

Ask: Which measured pIC50 value corresponds to Cn1c(CC(=O)O)ccc1C(=O)c1ccc(C(C)(C)C)cc1 [t-butyl] ?
Result: 6.40

Ask: Which pIC50 is listed for CC(C)Cc1ccc(C(=O)c2ccc(CC(=O)O)n2C)cc1 [isobutyl] ?
Result: 7.13
